Assay: qHTS of pediatric cancer cell lines to identify multiple opportunities for drug repurposing: Primary screen for MG 63 (6-TG R) cells (AID 1347105); also: nearly all actives have a fitted effect of over 50% in size
Details: MG 63 (6-TG R) viability, CellTiter-Glo, 48 h; series mostly up to 46 µM
Method: Drug repurposing or repositioning has been offered as a strategy for drug development in oncology programs. This approach has special potential for childhood cancers and other rare or orphan diseases, where the expected return on new drug development has been a disincentive to pharmaceuticals. […] We employed a titration-based paradigm (quantitative high-throughput screening or qHTS), where all compounds were tested at multiple concentrations for their effect on cell viability. […]
Inconclusive results are not listed. Calls of active or inactive are those of the source. Calls follow the shape of the dose curve; as a rule, active = well fitted cell-killing curve with a large enough effect; inconclusive = small, poorly fitted or top-dose-only effect; inactive = no such curve, though single readings can be large or run the other way.
Classes used: active, inactive

| compound | class name |
| --- | --- |
| O=C(Nc1cc(C(F)(F)F)cc(C(F)(F)F)c1)c1cc(Cl)ccc1O | active |
| COc1ccc(-n2nc(C(N)=O)c3c2C(=O)N(c2ccc(N4CCCCC4=O)cc2)CC3)cc1 | inactive |
| CN1CCN(c2ccc3nc(-c4c(N)c5c(F)cccc5[nH]c4=O)[nH]c3c2)CC1 | inactive |
| Cc1nc(Nc2n[nH]c3c2CN(C(=O)N[C@H](CN(C)C)c2ccccc2)C3(C)C)c2sccc2n1 | active |
| O=c1[nH]c(=O)n(C2CCCO2)cc1F (configuration not stated) | inactive |
| CN(C)CC(C)(C)CNc1nn2c(-c3ccccc3)nnc2cc1C1CCC1 | active |
| Cc1cn2cc(C(=O)N(C)CCO)cc(N[C@@H]3CCOc4cccc(C)c43)c2n1 | inactive |
